I'd appreciate it if you could supply T/C values for the items below.
# Test system: L1210 leukemia ip in BDF1 mice, survival T/C
# TEST_METHOD_NOTES: NCI In Vivo Anticancer Drug Screen. Data for tumor model L1210 Leukemia (intraperitoneal) in B6D2F1 (BDF1) mice
# CONDITIONS_USED: endpoint: mean survival time; dose: 100.0 mg/kg/injection; schedule: Q04DX003 (ip); vehicle: Klucel (hydroxypropylcellulose) (HPC); higher = longer survival
Toxic doses and inconclusive results are not listed.

Data request: Form field - read-out: T/C; system: L1210 leukemia ip in BDF1 mice, survival T/C; submitted item: O=C1CC(=P(c2ccccc2)(c2ccccc2)c2ccccc2)C(=O)O1
Data returned: 93 % of control

Data request: Return T/C measured with L1210 leukemia ip in BDF1 mice, survival T/C given this compound: COC(=O)c1cc(C)c(Br)c(N)c1
Data returned: 100 % of control

Data request: Return T/C measured with L1210 leukemia ip in BDF1 mice, survival T/C given this compound: COc1cc(NS(C)(=O)=O)ccc1NS(C)(=O)=O
Data returned: 108 % of control

Data request: Recall the recorded T/C for Cc1cccc2c1C1c3ccccc3C(=O)CC1CC2=O (configuration not stated) with L1210 leukemia ip in BDF1 mice, survival T/C and state it.
Data returned: 98 % of control

Data request: Reported T/C for L1210 leukemia ip in BDF1 mice, survival T/C, given CC(C)CCC(O)c1cnc(OCc2ccccc2)nc1OCc1ccccc1 (configuration not stated) ?
Data returned: 92 % of control

Data request: Please tell me: T/C of C1=CC23C4CCC2C2C4C4C(=C1)C3C2N1CCCCC41 (configuration not stated) , system L1210 leukemia ip in BDF1 mice, survival T/C?
Data returned: 107 % of control

Data request: // fetch L1210 leukemia ip in BDF1 mice, survival T/C T/C for O=[N+]([O-])c1ccc2nccc(Cl)c2c1
Data returned: 95 % of control

Data request: Give recorded T/C with L1210 leukemia ip in BDF1 mice, survival T/C for the following compound: CC(C)=CCC/C(C)=C/COC(=O)C(CC=C(C)C)CCN1CCN(C)CC1 (configuration not stated)
Data returned: 104 % of control

Data request: Hi! What's the reported T/C for Cc1ncc(C(O)c2ccccc2)n1Cc1ccccc1 (configuration not stated) on L1210 leukemia ip in BDF1 mice, survival T/C?
Data returned: 106 % of control

Data request: Give T/C (L1210 leukemia ip in BDF1 mice, survival T/C) of the following compound: O=C(O)C(O)C(O)C(O)C(O)C(=O)O (configuration not stated)
Data returned: 95 % of control

Data request: # query: T/C | item COc1ccc(NC(=O)Oc2cc(C)cc(C)c2)cc1 | system: L1210 leukemia ip in BDF1 mice, survival T/C
Data returned: 100 % of control

Data request: Write down the reported T/C of CCCC1OC(=O)C(C)O1 (configuration not stated) , test system: L1210 leukemia ip in BDF1 mice, survival T/C.
Data returned: 105 % of control

Data request: Which measured T/C belongs to CCCCCCCCCCCCCCCCOB(OCCCCCCCCCCCCCCCC)OCCCCCCCCCCCCCCCC , tested on L1210 leukemia ip in BDF1 mice, survival T/C?
Data returned: 91 % of control

Data request: Recall the recorded T/C for O=C1OCCN1/N=C/c1ccc([N+](=O)[O-])o1 with L1210 leukemia ip in BDF1 mice, survival T/C and state it.
Data returned: 105 % of control

Data request: Enter reported T/C observed with L1210 leukemia ip in BDF1 mice, survival T/C for CCOC(=O)Nc1cc(Cl)ccc1C
Data returned: 103 % of control

Data request: Test system L1210 leukemia ip in BDF1 mice, survival T/C; read-out T/C; what value for CC(=O)n1ccnc1/C=C\c1ccc([N+](=O)[O-])s1 ?
Data returned: 103 % of control

Data request: // fetch L1210 leukemia ip in BDF1 mice, survival T/C T/C for COC(=O)C(Br)C(Br)N1C(=O)c2ccccc2C1=O (configuration not stated)
Data returned: 102 % of control

Data request: Request: T/C, test system L1210 leukemia ip in BDF1 mice, survival T/C, entry O=P1(N(CCCl)CCCl)N(Cc2ccccc2)c2ccccc2N1Cc1ccccc1
Data returned: 102 % of control

Data request: Give the reported T/C for Cc1ccc(C)c(NC(=O)c2ccccc2Cl)c1 (system: L1210 leukemia ip in BDF1 mice, survival T/C).
Data returned: 102 % of control

Data request: Param readout= T/C; system= L1210 leukemia ip in BDF1 mice, survival T/C; entry= O=C(O)c1ccc2c([N+](=O)[O-])cccc2n1 ; returns value.
Data returned: 96 % of control

Data request: What value of T/C on L1210 leukemia ip in BDF1 mice, survival T/C does Cc1ccc(Cl)cc1NC(=O)c1ccccc1 have?
Data returned: 95 % of control

Data request: Query for L1210 leukemia ip in BDF1 mice, survival T/C: what T/C does the record show for ClC1OC(Cl)(Cl)C(Cl)(Cl)OC1(Cl)Cl (configuration not stated) ?
Data returned: 107 % of control

Data request: Lab note: need T/C with L1210 leukemia ip in BDF1 mice, survival T/C for entry COC(=O)CCC#CC#CCCC(=O)OC , please look it up.
Data returned: 90 % of control

Data request: Please state recorded T/C (tested on L1210 leukemia ip in BDF1 mice, survival T/C) of BrC1C2CCC(CC2)C1Br (configuration not stated)
Data returned: 100 % of control

Data request: // lookup T/C | system=L1210 leukemia ip in BDF1 mice, survival T/C | key= Cc1cc([N+](=O)[O-])ccc1NS(=O)(=O)c1ccccc1
Data returned: 102 % of control

Data request: Please state recorded T/C (tested on L1210 leukemia ip in BDF1 mice, survival T/C) of NC(=O)c1ccc[n+]([O-])c1
Data returned: 100 % of control

Data request: Fill in the recorded T/C for this compound, with L1210 leukemia ip in BDF1 mice, survival T/C as test system: CC1(C)CC(=O)CC(C)(C)N1O
Data returned: 101 % of control

Data request: So what T/C did Cc1ccccc1-n1c(C)nc2ccccc2c1=O get with L1210 leukemia ip in BDF1 mice, survival T/C?
Data returned: 101 % of control

Data request: Give L1210 leukemia ip in BDF1 mice, survival T/C T/C for CC1=CC2=NC(=O)C(c3ccccc3)C(=O)N2C=C1 (configuration not stated)
Data returned: 90 % of control

Data request: Query the reported T/C for L1210 leukemia ip in BDF1 mice, survival T/C; item: CN(CCCl)Cc1ccccc1
Data returned: 108 % of control

Data request: Write down the reported T/C of Cc1cccc(Cl)c1NC(=O)NCCCl , test system: L1210 leukemia ip in BDF1 mice, survival T/C.
Data returned: 94 % of control

Data request: Give L1210 leukemia ip in BDF1 mice, survival T/C T/C for COCC(=O)OCCCCCOC(=O)COC
Data returned: 102 % of control
